B1: library; numbered along this chain (parent)
chain: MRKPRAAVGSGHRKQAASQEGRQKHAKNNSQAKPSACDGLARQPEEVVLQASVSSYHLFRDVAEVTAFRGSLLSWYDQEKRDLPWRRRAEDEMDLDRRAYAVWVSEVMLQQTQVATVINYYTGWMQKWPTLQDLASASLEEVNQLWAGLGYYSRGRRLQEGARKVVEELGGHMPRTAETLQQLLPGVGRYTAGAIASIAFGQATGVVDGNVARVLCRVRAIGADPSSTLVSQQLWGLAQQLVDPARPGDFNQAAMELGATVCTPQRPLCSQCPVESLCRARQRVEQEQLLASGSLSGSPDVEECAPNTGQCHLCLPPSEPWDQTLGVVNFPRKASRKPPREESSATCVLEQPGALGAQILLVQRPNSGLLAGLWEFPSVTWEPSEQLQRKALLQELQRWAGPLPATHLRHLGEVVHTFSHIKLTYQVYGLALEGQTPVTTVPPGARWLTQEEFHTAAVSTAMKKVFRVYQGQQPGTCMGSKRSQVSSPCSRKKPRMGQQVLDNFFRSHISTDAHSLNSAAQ

Variants of: B1
ASSAY SUMMARY: 8OG:A repair function score (normalized; synonymous = 0, nonsense = -1) (normalized log-likelihood score); higher = more repair activity (WT-like);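 note: cells sorted at 72 h after reporter transfection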
PARTICULARS: with 8OG:A DNA repair reporter (GFP) in HEK-293 MUTYH KO cells
Note: every record was labeled by where its 8OG:A repair function score sits among low group: < -0.6; middle group: ≥ -0.6 and < -0.02; high group: ≥ -0.02

S515W : high group
T324I : middle group
E382A : middle group
A238R : low group
I195W : low group

In: Sort P244I into one of the categories.
Out: middle group

In: Class for L516E ?
Out: high group

In: Class for P317H ?
Out: middle group

In: Band assignment needed for L411V please.
Out: high group

From: the supplement of paper PMC11908140
